# maps each entry to its EC50
- testedTarget: human GcgR (Homo sapiens)
- Sequence (P47871 26-477): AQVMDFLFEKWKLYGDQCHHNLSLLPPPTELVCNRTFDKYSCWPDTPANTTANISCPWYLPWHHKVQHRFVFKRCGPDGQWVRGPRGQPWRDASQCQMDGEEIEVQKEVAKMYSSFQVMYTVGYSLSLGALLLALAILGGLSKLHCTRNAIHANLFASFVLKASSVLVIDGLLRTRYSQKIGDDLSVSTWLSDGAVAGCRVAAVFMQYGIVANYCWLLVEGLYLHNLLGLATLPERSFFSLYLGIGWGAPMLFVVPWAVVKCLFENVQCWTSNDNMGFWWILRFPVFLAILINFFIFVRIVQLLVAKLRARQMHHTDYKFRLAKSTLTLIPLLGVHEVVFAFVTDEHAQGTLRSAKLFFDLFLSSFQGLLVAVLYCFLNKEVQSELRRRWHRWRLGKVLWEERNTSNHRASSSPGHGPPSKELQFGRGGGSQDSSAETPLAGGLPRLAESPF
- methodNotes: Functional cAMP activity in the presence of 1% HSA
- Type: cell-based
- experimentalConditions: read-out: cAMP Rel EC50, hGcgR
Starred links: 1 amine or outer side, 2 acyl side, 3 side chain; linkers in the order of their positions; H or OH if unused. Non-standard residues stand in square brackets, D forms with d. Groups on a side chain read outwards from the residue. No end group written: not given here. *: point of attachment. C18 diacid = O=C(O)CCCCCCCCCCCCCCCCC(=O)*; αMePhe(2-F) = C[C@](N)(Cc1ccccc1F)C(=O)O; γGlu = O=C(O)[C@H](CCC(=O)[*:2])N[*:1]; αMe4Pal = C[C@](N)(Cc1ccncc1)C(=O)O; αMeY = C[C@](N)(Cc1ccc(O)cc1)C(=O)O; αMeF = C[C@](N)(Cc1ccccc1)C(=O)O; 4Pal = N[C@@H](Cc1ccncc1)C(=O)O; αMeL = CC(C)C[C@](C)(N)C(=O)O; αMeS = C[C@](N)(CO)C(=O)O; Orn = NCCC[C@H](N)C(=O)O; AEEA = NCCOCCOCC(=O)O; Aib = CC(C)(N)C(=O)O
Please reply with the bare figure in µM and do not write the unit itself.

Please review the entries below; each comes with its answer.
substance: H-Y[Aib]QGT[αMePhe(2-F)]TSD[4Pal][αMeS]I[αMeL]LD[Orn]K([γGlu-γGlu-C18 diacid])AQ[αMe4Pal]EFI[dE][αMeY]LIEGGPSSGAPPPSGGGEEE-NH2 [Example 1219]
testedTarget: human GcgR (Homo sapiens)
assayMetric: EC50
assayValue: 0.168

substance: H-Y[Aib]QGT[αMePhe(2-F)]TSD[4Pal]SI[αMeL]LD[Orn]K([AEEA-γGlu-C18 diacid])AQ[αMe4Pal][Orn]FI[dE][αMeY]LEEGGPSSGEPPPEGT-NH2 [Example 506]
testedTarget: human GcgR (Homo sapiens)
assayMetric: EC50
assayValue: 2.33

substance: H-Y[Aib]QGTFTSD[4Pal]S[Orn][αMeL]LDKK([γGlu-γGlu-C18 diacid])AQ[αMe4Pal]AFIEYLIE[Aib]GPSSGAPPPSGS-NH2 [Example 865]
testedTarget: human GcgR (Homo sapiens)
assayMetric: EC50
assayValue: 0.248

substance: H-Y[Aib]QGTFTSD[4Pal][αMeS]Q[αMeL]LD[Orn]K([dE-γGlu-C18 diacid])AQ[αMe4Pal]QFIQ[αMeY]LIE[Aib]GPSSGAPPPSGGGE-NH2 [Example 1186]
testedTarget: human GcgR (Homo sapiens)
assayMetric: EC50
assayValue: 0.164

// substance H-Y[Aib]QGTFTSD[4Pal]S[Orn][αMeL]LDKK([γGlu-γGlu-C18 diacid])AQ[αMe4Pal]AFIE[αMe4Pal]LIE[Aib]GPSSGEPPPSGSE-NH2 [Example 990] , assay human GcgR (Homo sapiens), EC50 value: 0.276

// substance Y[Aib]QGTFTSDFS[Orn][αMeL]LDKK([AEEA-γGlu-C18 diacid])AQ[Aib]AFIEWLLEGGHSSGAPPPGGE-NH2 [Example 273] , assay human GcgR (Homo sapiens), EC50 value: 1.77

// substance Y[Aib]QGTFTSD[4Pal]SQ[αMeL]LDKK([γGlu-dE-dE-C18 diacid])AQ[αMe4Pal]AFIEYLIE[Aib]GPSSGAPPPSGSE-NH2 [Example 926] , assay human GcgR (Homo sapiens), EC50 value: 1.38

// substance Y[Aib]QGT[αMeF]TSD[4Pal][αMeS]I[αMeL]LD[Orn]K([γGlu-γGlu-C18 diacid])AQ[αMe4Pal]EFI[dE][αMeY]LIEGGPSSGAPPPSGGGE-NH2 [Example 1174] , assay human GcgR (Homo sapiens), EC50 value: 0.347

// substance H-Y[Aib]QGTFTSD[4Pal]S[Orn][αMeL]LD[Orn]K([γGlu-γGlu-C18 diacid])AQ[Aib]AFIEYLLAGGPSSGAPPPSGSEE-NH2 [Example 1069] , assay human GcgR (Homo sapiens), EC50 value: 2.16

// substance H-Y[Aib]QGT[αMePhe(2-F)]TSD[4Pal][αMeS]I[αMeL]LD[Orn]K([γGlu-γGlu-C18 diacid])AQ[Aib][Orn]FI[dE]YLIEGGPSSGEPPPSGTEE-NH2 [Example 535] , assay human GcgR (Homo sapiens), EC50 value: 0.238

// substance H-Y[Aib]QGT[αMePhe(2-F)]TSD[4Pal][αMeS]I[αMeL]LD[Orn]K([γGlu-γGlu-C18 diacid])AQ[Aib][Orn]FI[dE][αMeY]LSEGGPSSGEPPPSGTE-NH2 [Example 517] , assay human GcgR (Homo sapiens), EC50 value: 0.337
